These measurements were taken from patent US20250066745A1.

Experiment: Luminescence activity assay of purified Gaussia luciferase mutants on coelenterazine
Assay type: biochemical
Set-up: key: ratio of mutant luminescence intensity to wild-type Gaussia luciferase
Details: Substrate CTZ (Table 16)
Below is a list of entries, each paired with its recorded Activity of mutant relative to wild-type Gaussia luciferase without the signal peptide value.
parameter_measured: Activity of mutant relative to wild-type Gaussia luciferase without the signal peptide

* S103I A104G E110G L124M V138D: Gaussia luciferase mutant (protein, SIGNAL (1)..(17), Gaussia luciferase mutant) MGVKVLFALICIAVAEAKPTENNEDFNIVAVASNFATTDLDADRGKLPGKKLPLEVLKEMEANARKAGCTRGCLICLSHIKCTPKMKKFIPGRCHTYEGDKEIGQGGIGGAIVDIPEIPGFKDMEPMEQFIAQVDLCDDCTTGCLKGLANVQCSDLLKKWLPQRCATFASKIQGQVDKIKGAGGD | 1.165
* H79K P84L V138D: Gaussia luciferase mutant (protein, SIGNAL (1)..(17), Gaussia luciferase mutant) MGVKVLFALICIAVAEAKPTENNEDFNIVAVASNFATTDLDADRGKLPGKKLPLEVLKEMEANARKAGCTRGCLICLSKIKCTLKMKKFIPGRCHTYEGDKESAQGGIGEAIVDIPEIPGFKDLEPMEQFIAQVDLCDDCTTGCLKGLANVQCSDLLKKWLPQRCATFASKIQGQVDKIKGAGGD | 0.094
